Origin of values: patent US6054435A

Record set of MIC for target or system Streptococcus pyogenes EES61.
Give the number; µg/mL is assumed, so skip it.

Ask: Give the observed MIC of `CC[C@H]1OC(=O)[C@H](C)C(=O)[C@H](C)[C@@H](O[C@@H]2O[C@H](C)C[C@H](N(C)C)[C@H]2O)[C@](C)(OC/C=C/c2cncc(-c3cccnc3)c2)C[C@@H](C)C(=O)[C@H](C)[C@H]2NC(=O)O[C@@]21C` for Streptococcus pyogenes EES61.
Result: 0.02

Ask: Give the observed MIC of `CC[C@H]1OC(=O)[C@H](C)C(=O)[C@H](C)[C@@H](O[C@@H]2O[C@H](C)C[C@H](N(C)C)[C@H]2O)[C@](C)(OCC#Cc2ccc(-c3ccccn3)s2)C[C@@H](C)C2=NCCN3C(=O)O[C@@]1(C)[C@H]3[C@H]2C` for Streptococcus pyogenes EES61.
Result: 0.02
